Can you tell me Phytotoxicity Stunting for the items I'm about to list?
Tested on: kale 'Red Russian'
assay-text: Visual injury of kale after insecticide, fungicide, PGRs, safeners (Example 4)
condition: 28 DA-A, rates g ai/ha: chlropyrifos 1120, chlorothalonil 2630, paclobutrazol 3.23, mepiquat-chloride 12.3, + NIS 0.25 % v/v
Give bare numbers, in %.

The cases that follow already have their Phytotoxicity Stunting on record.
>  <molecule>
C[N+]1(C)CCCCC1 [mepiquat-chloride]

>  <measured-value>
9

$$$$
>  <molecule>
CC(C)(C)[C@@H](O)[C@@H](Cc1ccc(Cl)cc1)n1cncn1 (racemic)

>  <measured-value>
21

$$$$
>  <molecule>
CCOP(=S)(OCC)Oc1nc(Cl)c(Cl)cc1Cl

>  <measured-value>
8

$$$$

The record that follows has no Phytotoxicity Stunting shown yet.
query: Please give the measured Phytotoxicity Stunting for this molecule: N#Cc1c(Cl)c(Cl)c(Cl)c(C#N)c1Cl
result: 6
